Here, compounds appear alongside IC50 reported for ATP-citrate synthase (Homo sapiens) in the literature.
ENDPOINT NAME: IC50 (µM)

smiles=Cc1cc(O)c2c(c1)C(=O)c1cc(O)c(Cl)c(O)c1C2=O assay_target="ATP-citrate synthase (Homo sapiens)" relation_qualifier== measurement=12.6
smiles=O=C(O)c1cc2cc(Cl)ccc2n1S(=O)(=O)c1cc(Cl)cc(Cl)c1 assay_target="ATP-citrate synthase (Homo sapiens)" relation_qualifier=< measurement=0.5
smiles=C=C1CC[C@@](C)([C@H](C)CC(=O)C[C@](C)(C(=O)O)[C@]2(C(=C)C)C=C3CC[C@@H]4[C@](C)(CCC[C@@]4(C)C(=O)O)[C@H]3CC2)[C@@]12CCC1=C2CC[C@H]2C(C)(C)C(=O)CC[C@]12C assay_target="ATP-citrate synthase (Homo sapiens)" relation_qualifier== measurement=11
smiles=C=C1CC[C@@](C)([C@H](C)CC(=O)C[C@@](C)(C(=O)O)[C@]2(C(=C)C)C=C3CC[C@@H]4[C@](C)(CCC[C@@]4(C)C(=O)O)[C@H]3CC2)[C@@]12CCC1=C2CC[C@H]2C(C)(C)C(=O)CC[C@]12C assay_target="ATP-citrate synthase (Homo sapiens)" relation_qualifier== measurement=22.8
smiles=Cc1cc(O)c2c(c1)C(=O)c1cc3c(c(O)c1C2=O)CN(c1ccccc1)CO3 assay_target="ATP-citrate synthase (Homo sapiens)" relation_qualifier== measurement=25.8
smiles=Cc1cc(O)c2c(c1)C(=O)c1cc(O)c(I)c(O)c1C2=O assay_target="ATP-citrate synthase (Homo sapiens)" relation_qualifier== measurement=7.5
smiles=O=S(=O)(c1cc(Cl)cc(Cl)c1)n1c(-c2cncnc2)cc2cc(Cl)ccc21 assay_target="ATP-citrate synthase (Homo sapiens)" relation_qualifier=> measurement=20
smiles=O=C1C(c2ccc(O)c(O)c2)=c2c(c3c(n2CCc2ccc(O)cc2)=C(c2ccc(O)c(O)c2)C(=O)c2cc(O)c(O)cc2-3)-c2cc(O)c(O)cc21 assay_target="ATP-citrate synthase (Homo sapiens)" relation_qualifier== measurement=7
smiles=Cc1oc(C(=O)O)cc1COc1ccc2c(C)c(Cc3ccccc3)c(=O)oc2c1 assay_target="ATP-citrate synthase (Homo sapiens)" relation_qualifier== measurement=11.9
smiles=Cc1cc(O)c2c(c1)C(=O)c1c(Cl)c(O)cc(O)c1C2=O assay_target="ATP-citrate synthase (Homo sapiens)" relation_qualifier== measurement=9.6
smiles=COc1ccc(-c2ccccc2)cc1NS(=O)(=O)c1cc(Cl)cc(Cl)c1O assay_target="ATP-citrate synthase (Homo sapiens)" relation_qualifier== measurement=0.377
smiles=C=C1CC[C@@](C)([C@H](C)CC(=O)[C@H]2[C@H]3C[C@@H]4[C@@]5(C)CCC[C@@](C)(C(=O)O)[C@@H]5CC[C@@]4(C=C3C(C)C)[C@]2(C)C(=O)O)[C@@]12CCC1=C2CC[C@H]2C(C)(C)C(=O)CC[C@]12C assay_target="ATP-citrate synthase (Homo sapiens)" relation_qualifier== measurement=4.1
smiles=Cc1cc(O)c2c(c1)C(=O)c1cc(O)c(-c3cnn(C)c3)c(O)c1C2=O assay_target="ATP-citrate synthase (Homo sapiens)" relation_qualifier== measurement=13.3
smiles=C=C1CC[C@@](C)([C@H](C)CC(=O)[C@H]2[C@H]3C[C@@H]4[C@@]5(C)CCC[C@@](C)(C(=O)O)[C@@H]5CC[C@]45C(OC(=O)[C@]25C)C3=C(C)C)[C@@]12CCC1=C2CC[C@H]2C(C)(C)C(=O)CC[C@]12C assay_target="ATP-citrate synthase (Homo sapiens)" relation_qualifier== measurement=10.8
